These data points were gathered from ChEMBL document CHEMBL1135663.

Could you please report measured Ki for the items listed next?
- assay-target: Mu-type opioid receptor (Homo sapiens, UniProt P35372)
- Sequence (P35372 whole entry): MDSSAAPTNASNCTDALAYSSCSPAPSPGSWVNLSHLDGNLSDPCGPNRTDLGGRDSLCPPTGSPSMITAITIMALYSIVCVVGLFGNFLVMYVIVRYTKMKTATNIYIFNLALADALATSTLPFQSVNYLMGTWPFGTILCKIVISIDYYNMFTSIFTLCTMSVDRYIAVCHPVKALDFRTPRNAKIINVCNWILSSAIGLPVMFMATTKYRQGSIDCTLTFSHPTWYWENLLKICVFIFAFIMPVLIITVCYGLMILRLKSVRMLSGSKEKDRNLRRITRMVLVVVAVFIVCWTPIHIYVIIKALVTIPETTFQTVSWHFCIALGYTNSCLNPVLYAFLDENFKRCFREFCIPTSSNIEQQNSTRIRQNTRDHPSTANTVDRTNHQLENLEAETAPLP
- measurement-protocol: Binding affinity for opioid receptor type, human Opioid receptor mu 1 expressed in membrane homogenates of COS-1 or CHO cells
- Type: cell-based
Numbers only, in nM.

CC(=O)N[C@@H](CCCN=C(N)N)C(=O)N[C@H](CC1CCCCC1)C(=O)N[C@@H](Cc1ccccc1)C(=O)N1[C@H](C(=O)N[C@H](CCCN=C(N)N)C(=O)N[C@H](Cc2ccc(Cl)cc2)C(N)=O)CC[C@@H]1C(C)(C)C	368

Lookup: Could you share what Ki was measured for CC(=O)N[C@@H](CCCN=C(N)N)C(=O)NC(CC1CCCCC1)C(=O)NC1CC[C@H]2CCC[C@@H](C(=O)N[C@H](CCCN=C(N)N)C(=O)NC(Cc3ccc(Cl)cc3)C(N)=O)N2C1=O (stereo in doubt) , tested on Mu-type opioid receptor (Homo sapiens, UniProt P35372)?
Found: 496

###

- assay-target: UniProt P41145
- Sequence (P41145 whole entry): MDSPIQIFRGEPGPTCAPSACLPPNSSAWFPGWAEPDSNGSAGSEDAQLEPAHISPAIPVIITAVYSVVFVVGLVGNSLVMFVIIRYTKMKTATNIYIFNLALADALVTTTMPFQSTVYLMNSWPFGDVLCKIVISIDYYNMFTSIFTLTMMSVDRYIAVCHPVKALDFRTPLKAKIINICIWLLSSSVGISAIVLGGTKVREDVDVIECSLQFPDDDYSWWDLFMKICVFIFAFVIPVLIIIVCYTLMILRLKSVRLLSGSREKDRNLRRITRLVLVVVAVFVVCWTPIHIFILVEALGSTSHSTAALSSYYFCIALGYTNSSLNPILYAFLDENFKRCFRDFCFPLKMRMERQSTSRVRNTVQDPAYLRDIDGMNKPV
- measurement-protocol: Stimulation of [35S]GTP-gamma-S, binding using COS-human Opioid receptor kappa 1 membranes
pEC50: −log10 of the molar value.
observable: pEC50

CC(=O)N[C@@H](CCCNC(=N)N)C(=O)N[C@H](CC1CCCCC1)C(=O)N[C@H]1CC[C@H]2CC[C@@H](C(=O)N[C@H](CCCNC(=N)N)C(=O)N[C@H](Cc3ccc(Cl)cc3)C(N)=O)N2C1=O	< 6.00

Now consider a different compound.
Lookup: Need pEC50, item CC(=O)N[C@@H](CCCN=C(N)N)C(=O)NC(CC1CCCCC1)C(=O)NC1CC[C@H]2CCC[C@@H](C(=O)N[C@H](CCCN=C(N)N)C(=O)NC(Cc3ccc(Cl)cc3)C(N)=O)N2C1=O (stereo in doubt)
Found: < 6.00

###

Could you please report measured Ki for the items listed next?
- assay-target: Mu-type opioid receptor (Homo sapiens, UniProt P35372)
- measurement-protocol: Binding affinity for opioid receptor type, human Opioid receptor mu 1 expressed in membrane homogenates of COS-1 or CHO cells
- Format: cell-based
- reported-conditions: cos-1
Give bare numbers, in nM.

Worked examples follow.
CC(=O)N[C@@H](CCCNC(=N)N)C(=O)N[C@H](CC1CCCCC1)C(=O)N[C@H]1CC[C@H]2CC[C@@H](C(=O)N[C@H](CCCNC(=N)N)C(=O)N[C@H](Cc3ccc(Cl)cc3)C(N)=O)N2C1=O	75
CC(=O)N[C@@H](CCCN=C(N)N)C(=O)NC(CC1CCCCC1)C(=O)N[C@H]1CC[C@@H]2SC[C@H](C(=O)N[C@H](CCCN=C(N)N)C(=O)NC(Cc3ccc(Cl)cc3)C(N)=O)N2C1=O (stereo in doubt)	53

Now consider a different compound.
Lookup: Need Ki, item CC(=O)N[C@@H](CCCN=C(N)N)C(=O)N[C@H](CC1CCCCC1)C(=O)N[C@H]1C[C@H]2CCC[C@@H](C(=O)N[C@H](CCCN=C(N)N)C(=O)N[C@H](Cc3ccc(Cl)cc3)C(N)=O)N2C1=O
Found: 2700

###

Could you please report measured Ki for the items listed next?
- assay-target: Delta-type opioid receptor (Homo sapiens, UniProt P41143)
- Sequence (P41143 whole entry): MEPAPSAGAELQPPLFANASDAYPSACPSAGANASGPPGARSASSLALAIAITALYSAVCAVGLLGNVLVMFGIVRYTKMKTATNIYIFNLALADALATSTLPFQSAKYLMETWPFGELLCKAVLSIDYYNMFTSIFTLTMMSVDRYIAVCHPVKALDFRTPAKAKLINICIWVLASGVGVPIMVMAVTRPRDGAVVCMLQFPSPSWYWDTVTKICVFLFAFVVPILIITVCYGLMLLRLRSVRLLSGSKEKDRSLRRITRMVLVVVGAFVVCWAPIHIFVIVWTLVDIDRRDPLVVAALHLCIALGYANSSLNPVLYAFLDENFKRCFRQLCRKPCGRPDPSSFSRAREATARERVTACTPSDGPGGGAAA
- measurement-protocol: Binding affinity for opioid receptor type, human Opioid receptor delta 1 expressed in membrane homogenates of COS-1 or CHO cells
- Assay type: cell-based
One number for each entry, in µM.

CC(=O)N[C@@H](CCCN=C(N)N)C(=O)N[C@H](CC1CCCCC1)C(=O)N[C@@H](Cc1ccccc1)C(=O)N1[C@H](C(=O)N[C@H](CCCN=C(N)N)C(=O)N[C@H](Cc2ccc(Cl)cc2)C(N)=O)CC[C@@H]1C(C)(C)C	2.34

Now consider a different compound.
Lookup: Need Ki, item CC(=O)N[C@@H](CCCN=C(N)N)C(=O)NC(CC1CCCCC1)C(=O)NC1CC[C@H]2CCC[C@@H](C(=O)N[C@H](CCCN=C(N)N)C(=O)NC(Cc3ccc(Cl)cc3)C(N)=O)N2C1=O (stereo in doubt)
Found: 7.05
